Data provenance: ChEMBL document CHEMBL5321212

Tested on: Cell membrane
Assay: Displacement of [3H]-WIN55212-2 from HEK293 cell membrane lacking CB1R and CB2R assessed as inhibition constant for lower affinity site
Format: subcellular
Settings: Homo sapiens
Quick rule for you: KiL under 0.4 µM gets y, anything else gets n.

I'd appreciate it if you could check whether `Cc1ccc(C(=O)c2c(C)n(CCN3CCOCC3)c3ncccc23)c2ccccc12` has KiL smaller than 0.4 µM.
y

Confirm or reject: KiL of `Cc1c(C(=O)c2cccc3ccccc23)c2ccccc2n1C` lies strictly below 0.4 µM
n

I'd appreciate it if you could check whether `Cc1ccc(C(=O)c2c(C)n(CCN3CCOCC3)c3ccc(Cl)cc23)c2ccccc12` has KiL smaller than 0.4 µM.
n

Please check: KiL for `CCn1c(C)c(C(=O)c2ccc(C)c3ccccc23)c2ccccc21` , strictly under 0.4 µM or not?
y

Given `Cc1ccc(C(=O)c2c(C)n(CCN3CCOCC3)c3ccccc23)c2ccccc12` , is recorded KiL strictly lower than 0.4 µM?
y

###

KiH values by entry
Tested on: Cell membrane
Test: Displacement of [3H]-WIN55212-2 from HEK293 cell membrane lacking CB1R and CB2R assessed as inhibition constant for higher affinity site
Assay type: subcellular
Conditions: Homo sapiens
The reply should be a number in nM, with the unit left off.

What measured KiH is associated with `Cc1ccc(C(=O)c2c(C)n(CCN3CCOCC3)c3ncccc23)c2ccccc12` on Cell membrane?
0.4

Give recorded KiH with Cell membrane for the following molecule: `Cc1ccc(C(=O)c2c(C)n(C)c3ccccc23)c2ccccc12`
0.8

I'm curious: which KiH was measured for `Cc1ccc(C(=O)c2c(C)n(CCN3CCOCC3)c3ccccc23)c2ccccc12` tested on Cell membrane?
0.8

Identify the measured KiH of `Cc1ccc(C(=O)c2c(C)n(CCN3CCOCC3)c3cnccc23)c2ccccc12` for Cell membrane.
5.8

###

System: Cell membrane
Experiment: Displacement of [3H]-WIN55212-2 from HEK293 cell membrane lacking CB1R and CB2R assessed as inhibition constant for lower affinity site
Assay type: subcellular
Conditions: Homo sapiens
Observation type: KiL
Remember to quote the unit after the number.

1. Cc1ccc(C(=O)c2c(C)n(CCN3CCOCC3)c3cnccc23)c2ccccc12 :: 2.1 µM
2. Cc1ccc(C(=O)c2c(C)n(C)c3ccccc23)c2ccccc12 :: 2.6 µM
3. Cc1ccc(C(=O)c2c3n(c4ccccc24)CCCC3)c2ccccc12 :: 2.6 µM

Let's switch to this molecule now.
// KiL lookup, key: `Cc1c(C(=O)c2cccc3ccccc23)c2cccc3c2n1[C@@H](CN1CCOCC1)CO3`
0.0072 µM
